biological target: OCT3 (Homo sapiens); construct: expressed in transfected cells; host or cells: HEK293; experiment: Inhibition of model substrate uptake in OCT3-overexpressing HEK293 cells; format: cell-based
readout_type: (S,S)-Ethambutol inhibition [%]
The answer should be written as a number, with no unit following it.

Ask | Data request, read-out (S,S)-Ethambutol inhibition [%], for C1CCN2C[C@@H]3C[C@@H](CN4CCCC[C@@H]34)[C@H]2C1 [(-)-Sparteine]
Reply | 20.7

Ask | For Cc1ccc(O)c([C@@H](CCN(C(C)C)C(C)C)c2ccccc2)c1 [(S)-Tolterodine] , what is its reported (S,S)-Ethambutol inhibition [%]?
Reply | 89.8

Ask | Need (S,S)-Ethambutol inhibition [%] of CC(C)C[C@H](N(C)C)C1(c2ccc(Cl)cc2)CCC1 [(S)-Sibutramine] , thanks.
Reply | 23.8

Ask | // query (S,S)-Ethambutol inhibition [%] value for entry CNCC[C@H](Oc1ccc(C(F)(F)F)cc1)c1ccccc1 [(S)-Fluoxetine]
Reply | 12.3

====

target: OCT1 (Homo sapiens, UniProt O15245); assay: Inhibition of model substrate uptake in OCT1-overexpressing HEK293 cells; type: cell-based; parameters: expressed in transfected cells; host or cells: HEK293; details: human, OCT1-overexpressing HEK293 cells, pH 7.4, OCT1; ratio of the IC50 values of the two enantiomers of the drug; read-out: x-fold Stereoselectivity
Record form. Attribute: selectivity ratio at 5 min. Fill in for each entry.
The answer should be a number; do not append a unit.

Ask | Recorded selectivity ratio at 5 min of CCCN[C@H]1CCc2nc(N)sc2C1 [Pramipexole] , please.
Reply | 1.6

Ask | I'd like to know its selectivity ratio at 5 min. The compound in question is CCCCN1CCCCC1C(=O)Nc1c(C)cccc1C (stereo not shown)
Reply | 1.8

Ask | selectivity ratio at 5 min lookup needed for CCN(CC)CC#CCOC(=O)C(O)(c1ccccc1)C1CCCCC1 (stereo not shown) , thanks.
Reply | 1.2

Ask | For CN(C)CCOC(C)(c1ccccc1)c1ccccn1 (stereo not shown) , what is its reported selectivity ratio at 5 min?
Reply | 1.4

====

Assign inhibition at 5 min, 20 μM to each entry below.
target: UniProt:O15245; assay: Inhibition of model substrate uptake in OCT1-overexpressing HEK293 cells; type: cell-based; set-up: expressed in transfected cells; host or cells: HEK293; conditions: human, OCT1-overexpressing HEK293 cells, pH 7.4, probe ASP+ (2 μM), OCT1; 20 μM inhibitor, 2 μM ASP+, 5 min; mean of three experiments; read-out: ASP+ inhibition [%]
Provide the reading as a plain figure in %.

Ask | Provide value of inhibition at 5 min, 20 μM for this record tested with UniProt:O15245: CCC(CO)NCCNC(CC)CO [(R,R)-Ethambutol]
Reply | 7.7

Ask | Observed inhibition at 5 min, 20 μM on UniProt:O15245 for OC[C@H](O)CN1CCN(c2ccccc2)CC1 [(R)-Dropropizine] , please.
Reply | 26.2

Ask | Any idea what inhibition at 5 min, 20 μM came out for C=C[C@H]1C[N@@]2CC[C@H]1C[C@H]2[C@H](O)c1ccnc2ccc(OC)cc12 [Quinine] on UniProt:O15245?
Reply | 15.5

Ask | // map CNC[C@H](O)c1cccc(O)c1 [(R)-Phenylephrine] to recorded inhibition at 5 min, 20 μM (system: UniProt:O15245)
Reply | 3.2

Ask | Recorded inhibition at 5 min, 20 μM for CC(C)Cc1ccc([C@@H](C)C(=O)O)cc1 [(R)-Ibuprofen] with UniProt:O15245, please?
Reply | 8.3

====

molecular target: OCT3 (Homo sapiens, UniProt O75751); construct: expressed in transfected cells; host or cells: HEK293; assay: Inhibition of model substrate uptake in OCT3-overexpressing HEK293 cells; assay type: cell-based; settings: HEK293, 5 min, read-out: (S)-Zolmitriptan inhibition [%], OCT3; 20 μM inhibitor, 2 μM (S)-zolmitriptan, 5 min
Sequence (O75751 whole entry): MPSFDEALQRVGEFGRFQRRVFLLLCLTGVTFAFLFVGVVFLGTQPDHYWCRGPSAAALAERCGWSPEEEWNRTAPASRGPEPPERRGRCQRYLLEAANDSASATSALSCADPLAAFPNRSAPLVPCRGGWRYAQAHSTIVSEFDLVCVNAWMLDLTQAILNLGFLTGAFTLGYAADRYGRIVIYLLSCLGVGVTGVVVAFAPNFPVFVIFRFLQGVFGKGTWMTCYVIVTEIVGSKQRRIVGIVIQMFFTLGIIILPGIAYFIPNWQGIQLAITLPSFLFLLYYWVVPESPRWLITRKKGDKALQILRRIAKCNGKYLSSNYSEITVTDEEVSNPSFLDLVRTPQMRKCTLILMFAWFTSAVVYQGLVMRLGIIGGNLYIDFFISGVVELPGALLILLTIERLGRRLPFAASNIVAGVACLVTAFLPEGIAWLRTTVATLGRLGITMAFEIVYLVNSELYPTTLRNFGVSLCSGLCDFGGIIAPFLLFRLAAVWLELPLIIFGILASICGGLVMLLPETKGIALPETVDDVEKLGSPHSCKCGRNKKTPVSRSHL
Kind request: treat 20% as inclusive, so inhibition at 20 µM at 20% or higher is TRUE, anything lower is FALSE.

Ask | Form field: inhibition at 20 µM at least 20%? Entry: CN(C)CCC[C@@]1(c2ccc(F)cc2)OCc2cc(C#N)ccc21 [(S)-Citalopram]
Reply | FALSE

Ask | I'd appreciate it if you could say whether CC(C)(C)NC[C@H](O)COc1nsnc1N1CCOCC1 [(S)-Timolol] has inhibition at 20 µM at least equal to 20%.
Reply | FALSE

Ask | Check the entry CCCNC[C@@H](O)COc1ccccc1C(=O)CCc1ccccc1 [(R)-Propafenone] : does inhibition at 20 µM equal or exceed 20%?
Reply | TRUE

Ask | Does the reported inhibition at 20 µM for C=C[C@H]1C[N@@]2CC[C@H]1C[C@H]2[C@H](O)c1ccnc2ccc(OC)cc12 fall at or above the 20% mark?
Reply | TRUE

Ask | Could you tell me if the measured inhibition at 20 µM of CC(C)(C)NC[C@@H](O)COc1nsnc1N1CCOCC1 [(R)-Timolol] reaches 20% or more?
Reply | FALSE

====

Exercise: for every item that follows, state its recorded IC50.
target: UniProt:O15245; test: Inhibition of model substrate uptake in OCT1-overexpressing HEK293 cells; format: cell-based; parameters: expressed in transfected cells; host or cells: HEK293; settings: OCT1, Table 1; read-out: IC50
Write the value in µM as a bare number.

Ask | Reported IC50, compound CCCCN1CCCC[C@H]1C(=O)Nc1c(C)cccc1C [(S)-Bupivacaine] : ____
Reply | 18.7

Ask | Which measured IC50 value corresponds to CCCCN1CCCC[C@@H]1C(=O)Nc1c(C)cccc1C [(R)-Bupivacaine] ?
Reply | 10.2

====

Target: OCT1 (Homo sapiens, UniProt O15245)
Sequence (O15245 1-554): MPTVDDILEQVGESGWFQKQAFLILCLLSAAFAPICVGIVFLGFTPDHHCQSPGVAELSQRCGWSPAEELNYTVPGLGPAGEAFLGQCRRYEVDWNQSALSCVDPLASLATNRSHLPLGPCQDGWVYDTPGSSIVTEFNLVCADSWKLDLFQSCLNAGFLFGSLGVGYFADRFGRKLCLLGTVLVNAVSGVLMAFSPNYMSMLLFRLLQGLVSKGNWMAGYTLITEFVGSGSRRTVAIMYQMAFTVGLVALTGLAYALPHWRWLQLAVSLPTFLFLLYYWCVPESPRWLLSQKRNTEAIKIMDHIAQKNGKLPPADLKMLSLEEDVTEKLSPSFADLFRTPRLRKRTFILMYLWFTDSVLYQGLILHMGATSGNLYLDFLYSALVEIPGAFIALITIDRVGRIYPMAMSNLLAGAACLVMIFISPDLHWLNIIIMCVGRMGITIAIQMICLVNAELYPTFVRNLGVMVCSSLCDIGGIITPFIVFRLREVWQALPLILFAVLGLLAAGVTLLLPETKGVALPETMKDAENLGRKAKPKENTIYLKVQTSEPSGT
Experiment: Inhibition of model substrate uptake in OCT1-overexpressing HEK293 cells
Assay type: cell-based
Design: expressed in transfected cells; host or cells: HEK293
Conditions: human, OCT1-overexpressing HEK293 cells, pH 7.4, probe (S,S)-ethambutol (2 μM), (S,S)-Ethambutol inhibition [%], OCT1; 20 μM inhibitor, 2 μM (S,S)-ethambutol, 5 min
For each record, write down the corresponding inhibition at 5 min, 20 μM.
Quick note: give the figure in %, leave out the unit.

Ask | Would you mind telling me what inhibition at 5 min, 20 μM value was observed for Cc1cccc(C)c1OC[C@H](C)N [(S)-Mexiletine] ?
Reply | 78

Ask | Look up inhibition at 5 min, 20 μM for this compound: OC[C@H](O)CN1CCN(c2ccccc2)CC1 [(R)-Dropropizine]
Reply | 30.1

Ask | Request the reported inhibition at 5 min, 20 μM associated with CN(C)CCO[C@](C)(c1ccccc1)c1ccccn1 [(R)-Doxylamine]
Reply | 96

Ask | Could you tell me which inhibition at 5 min, 20 μM is on file for CN(C)CCC[C@]1(c2ccc(F)cc2)OCc2cc(C#N)ccc21 [(R)-Citalopram] ?
Reply | 72.8

Ask | Could you share which inhibition at 5 min, 20 μM value was measured for C#CCN[C@@H]1CCc2ccccc21 [(R)-Rasagiline] ?
Reply | 32

Ask | Find the recorded inhibition at 5 min, 20 μM belonging to CCCN[C@@H]1CCc2nc(N)sc2C1 [(R)-Pramipexole] and report it.
Reply | 51.6

Ask | What measured inhibition at 5 min, 20 μM goes with C=C[C@H]1C[N@@]2CC[C@H]1C[C@@H]2[C@@H](O)c1ccnc2ccc(OC)cc12 ?
Reply | 61.7

Ask | // query inhibition at 5 min, 20 μM value for entry COc1ccccc1OCCNC[C@@H](O)COc1cccc2[nH]c3ccccc3c12 [(R)-Carvedilol]
Reply | 100

Ask | Fill blank: measured inhibition at 5 min, 20 μM of the compound CN(C)CCc1c[nH]c2ccc(C[C@H]3COC(=O)N3)cc12 [(S)-Zolmitriptan] is ____.
Reply | 26.9

Ask | Fill in the blank: the reported inhibition at 5 min, 20 μM of CCN(CC)CC#CCOC(=O)[C@](O)(c1ccccc1)C1CCCCC1 [(R)-Oxybutynine] is ____.
Reply | 93.7

Ask | If you can, please state the reported inhibition at 5 min, 20 μM value of CC(C)NC[C@@H](O)COc1cccc2ccccc12 [(R)-Propranolol] .
Reply | 79.9

Ask | Form field: reported inhibition at 5 min, 20 μM of CNCC[C@H](Oc1cccc2ccccc12)c1cccs1 [(S)-Duloxetine]
Reply | 86.9

Ask | Query (compound): CNCC[C@@H](Oc1cccc2ccccc12)c1cccs1 [(R)-Duloxetine] ; field requested: inhibition at 5 min, 20 μM
Reply | 85.1

Ask | Fill blank: measured inhibition at 5 min, 20 μM of the compound C=C[C@H]1C[N@@]2CC[C@H]1C[C@H]2[C@H](O)c1ccnc2ccc(OC)cc12 is ____.
Reply | 54.8

Ask | Which inhibition at 5 min, 20 μM value is on record for CNC[C@@H](O)c1cccc(O)c1 [(S)-Phenylephrine] ?
Reply | 6.2

Ask | Which measured inhibition at 5 min, 20 μM value corresponds to CCCN[C@H]1CCc2nc(N)sc2C1 [(S)-Pramipexole] ?
Reply | 34.9

Ask | Any idea what inhibition at 5 min, 20 μM was measured for CNCC[C@@H](Oc1ccc(C(F)(F)F)cc1)c1ccccc1 [(R)-Fluoxetine] ?
Reply | 77.5

Ask | Which inhibition at 5 min, 20 μM is reported for this compound? CNC[C@H](O)c1cccc(O)c1 [(R)-Phenylephrine]
Reply | 6.3

Ask | inhibition at 5 min, 20 μM for CN(C)CCC[C@@]1(c2ccc(F)cc2)OCc2cc(C#N)ccc21 [(S)-Citalopram] ?
Reply | 80.1

Ask | Field request: inhibition at 5 min, 20 μM | item: CC(C)(C)NC[C@@H](O)COc1nsnc1N1CCOCC1 [(R)-Timolol]
Reply | 32.1

Ask | Which measured inhibition at 5 min, 20 μM value corresponds to COc1ccccc1OCCNC[C@H](O)COc1cccc2[nH]c3ccccc3c12 [(S)-Carvedilol] ?
Reply | 100

Ask | Query: inhibition at 5 min, 20 μM; subject: CCCCN1CCCC[C@@H]1C(=O)Nc1c(C)cccc1C [(R)-Bupivacaine]
Reply | 63.8

Ask | Value lookup for inhibition at 5 min, 20 μM; key = CC(C)(C)NC[C@H](O)c1ccc(O)c(CO)c1 [(R)-Salbutamol]
Reply | 12.2

Ask | Would you mind telling me what inhibition at 5 min, 20 μM value was observed for CC(C)Cc1ccc([C@@H](C)C(=O)O)cc1 [(R)-Ibuprofen] ?
Reply | 5.6

Ask | # lookup: inhibition at 5 min, 20 μM of CCCCN1CCCC[C@H]1C(=O)Nc1c(C)cccc1C [(S)-Bupivacaine]
Reply | 50.6

Ask | Endpoint output: inhibition at 5 min, 20 μM of CCN1CCC[C@@H]1CNC(=O)c1cc(S(=O)(=O)CC)c(N)cc1OC [(R)-Amisulpride] . Value?
Reply | 57.7

Ask | # get_value(readout='inhibition at 5 min, 20 μM', item= CC(C)(C)NC[C@H](O)COc1nsnc1N1CCOCC1 [(S)-Timolol] )
Reply | 25.6

Ask | Item under review: CC(C)Cc1ccc([C@H](C)C(=O)O)cc1 [(S)-Ibuprofen] . Reported inhibition at 5 min, 20 μM?
Reply | -10.6

Ask | Using the record for Cc1cccc(C)c1OC[C@@H](C)N [(R)-Mexiletine] , report its inhibition at 5 min, 20 μM.
Reply | 79.6
